Values from ChEMBL document CHEMBL1140698

Can you tell me Vd for the items I'm about to list?
Assay: Volume of distribution at steady state in mouse 5 mg/kg, iv or 10 mg/kg, po
Format: ADME, organism-based
Details: in vivo, read-out: Vdss
Record the value in L/kg, omitting the unit from your answer.

The recorded Vd for CCCNC(=O)c1cn2ncnc(Nc3cc(C(=O)NOC)ccc3C)c2c1C is 1.6

The recorded Vd for CCNC(=O)c1cn2ncnc(Nc3cc(C(=O)NOC)ccc3C)c2c1C is 7.6

The recorded Vd for CONC(=O)c1ccc(C)c(Nc2ncnn3cc(C(=O)N[C@@H](C)c4ccccc4)c(C)c23)c1 is 1.5
